System: DMS-135 lung cancer cells
Assay: Anti-cancer activity, WST-8 cell viability, DMS-135
Type: cell-based
Conditions: Homo sapiens; cell death at 18 hours, WST-8; n.a. = no activity; read-out: DMS-135 lung EC50
Experimental: A representative group of compounds (shown below) was tested for anti-cancer activity against human lung (DMS-135 and H69AR), prostate (DU-145), colorectal (HCT-15), and pancreatic (BxPC-3) cancer cell lines using the methodology described below, providing results shown in Table 3. Human cancer cells DU-145, DMS-135, H69AR, HCT-15, and BxPC-3 (American Type Culture Collection, ATCC) were cultured in supplemented media according to the recommendations of the supplier. […]
measured.endpoint: EC50 (µM)
Record the value in µM, omitting the unit from your answer.

Lookup: Reported EC50, molecule O=C(c1ccccc1)c1cc(O)c(-c2cc(Cl)cc(Cl)c2)c(O)c1 [Compound 28] : ____
Found: 11.8

New cases:
Lookup: For the molecule shown here, COc1cc(C(O)c2ccccc2)cc(OC)c1-c1cc(Cl)cc(Cl)c1 (centres unmarked) [Compound 15] , give the reported EC50.
Found: 6.2

----------
target: human CB1 receptor (Homo sapiens (Human))
Sequence (P21554 whole entry): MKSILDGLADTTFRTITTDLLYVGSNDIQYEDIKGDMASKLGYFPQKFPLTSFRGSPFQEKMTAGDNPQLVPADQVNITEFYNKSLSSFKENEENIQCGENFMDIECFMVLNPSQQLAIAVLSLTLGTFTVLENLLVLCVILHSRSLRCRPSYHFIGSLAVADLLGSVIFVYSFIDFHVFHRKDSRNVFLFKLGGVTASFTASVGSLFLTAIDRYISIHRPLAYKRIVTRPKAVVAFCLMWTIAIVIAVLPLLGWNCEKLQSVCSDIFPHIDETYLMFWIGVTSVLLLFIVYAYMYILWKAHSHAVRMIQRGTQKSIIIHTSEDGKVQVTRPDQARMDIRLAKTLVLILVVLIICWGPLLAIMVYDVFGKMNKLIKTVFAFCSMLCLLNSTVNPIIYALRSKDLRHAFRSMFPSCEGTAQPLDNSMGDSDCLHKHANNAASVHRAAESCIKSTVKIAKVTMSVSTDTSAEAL
Listed below: Ki values for each entry.

Study these solved cases before continuing.
Lookup: Short answer please: Ki, human CB1 receptor (Homo sapiens (Human)), entry O=C(c1ccccc1)c1cc(O)c(-c2cc(Cl)cc(Cl)c2)c(O)c1 [Compound 28]
Found: 27 nM

Lookup: # get_value(readout= Ki, system= human CB1 receptor (Homo sapiens (Human))) for O=C(c1cc(O)c(-c2cc(Cl)cc(Cl)c2)c(O)c1)c1cccs1 [Compound 31]
Found: > 1000 nM

New cases:
Lookup: API: value(readout=Ki, system=human CB1 receptor (Homo sapiens (Human))) for record COc1cc(C(=O)c2ccccc2)cc(O)c1-c1cc(Cl)cc(Cl)c1 [Compound 29]
Found: > 1000 nM

Lookup: Hi! What's the reported Ki for Cc1cccc(-c2ccc(C(=O)c3ccccc3)cc2O)c1 [Compound 25] on human CB1 receptor (Homo sapiens (Human))?
Found: > 1000 nM

Lookup: Test system human CB1 receptor (Homo sapiens (Human)); read-out Ki; what value for COc1cc(C(O)c2ccccc2)cc(OC)c1-c1cc(Cl)cc(Cl)c1 (stereo not drawn) [Compound 15] ?
Found: > 1000 nM

Lookup: human CB1 receptor (Homo sapiens (Human)) / Ki / COc1cc(C(O)c2cccs2)cc(OC)c1-c1cc(Cl)cc(Cl)c1 (stereo not drawn) [Compound 16] : value?
Found: > 1000 nM

Lookup: # value lookup — system human CB1 receptor (Homo sapiens (Human)), readout Ki, item Cc1cccc(-c2c(O)cc(C(=O)c3ccccc3)cc2O)c1 [Compound 26]
Found: 983 nM

Lookup: Find Ki (human CB1 receptor (Homo sapiens (Human))) for the entry COc1cc(C(=O)c2ccccc2)cc(O)c1-c1cccc(C)c1 [Compound 27]
Found: > 1000 nM

Lookup: Param readout= Ki; system= human CB1 receptor (Homo sapiens (Human)); entry= COc1cc(C(=O)c2cccs2)cc(O)c1-c1cc(Cl)cc(Cl)c1 [Compound 30] ; returns value.
Found: 503 nM

----------
tested on: BxPC-3 pancreatic cancer cells; assay: Anti-cancer activity, WST-8 cell viability, BxPC-3; type: cell-based; conditions: Homo sapiens, BXPC-3, 18 h, read-out: BxPC-3 pancreatic EC50 (μM)
measured.endpoint: EC50 (µM)
// units = µM; emit number, no label

Lookup: I have this molecule here, `COc1cc(C(=O)c2ccccc2)cc(O)c1-c1cc(Cl)cc(Cl)c1` , and I need its recorded EC50.
Found: 9.3

----------
Record: log10(Ki) reported on human CB2 receptor (Homo sapiens (Human)).
Values are log10 of Ki in nM.

Lookup: Under human CB2 receptor (Homo sapiens (Human)): log10(Ki) value of COc1cc(C(O)c2ccccc2)cc(OC)c1-c1cc(Cl)cc(Cl)c1 (stereo not drawn) ?
Found: 0.22

Further cases:
Lookup: Lab note: need log10(Ki) for `COc1cc(C(=O)c2ccccc2)cc(O)c1-c1cccc(C)c1` on human CB2 receptor (Homo sapiens (Human)), anyone have it?
Found: 2.35

Lookup: Provide value of log10(Ki) for this record tested with human CB2 receptor (Homo sapiens (Human)): `O=C(c1ccccc1)c1cc(O)c(-c2cc(Cl)cc(Cl)c2)c(O)c1`
Found: 0.47

Lookup: What is its log10(Ki) for human CB2 receptor (Homo sapiens (Human))? Entry: `O=C(c1cc(O)c(-c2cc(Cl)cc(Cl)c2)c(O)c1)c1cccs1`
Found: 0.24

Lookup: Test system human CB2 receptor (Homo sapiens (Human)); read-out log10(Ki); what value for COc1cc(C(O)c2cccs2)cc(OC)c1-c1cc(Cl)cc(Cl)c1 (stereo not drawn) ?
Found: -0.57

Lookup: Give log10(Ki) (human CB2 receptor (Homo sapiens (Human))) of the following molecule: `COc1cc(C(=O)c2ccccc2)cc(O)c1-c1cc(Cl)cc(Cl)c1`
Found: 0.68

Lookup: Tell me reported log10(Ki) for `Cc1cccc(-c2ccc(C(=O)c3ccccc3)cc2O)c1` , tested with human CB2 receptor (Homo sapiens (Human)).
Found: 2.66

Lookup: API: value(readout= log10(Ki), system= human CB2 receptor (Homo sapiens (Human)), query= `Cc1cccc(-c2c(O)cc(C(=O)c3ccccc3)cc2O)c1` )
Found: 2.20

Lookup: Item `COc1cc(C(=O)c2cccs2)cc(O)c1-c1cc(Cl)cc(Cl)c1` with human CB2 receptor (Homo sapiens (Human)) - log10(Ki)?
Found: 0.37

----------
tested on: H69AR lung cancer cells; assay: Anti-cancer activity, WST-8 cell viability, H69AR; assay type: cell-based; details: Homo sapiens, cell death at 18 hours, WST-8, n.a. = no activity, read-out: H69AR lung EC50
measured.endpoint: pEC50
Please note pEC50 is a logarithmic value: minus log10 of concentration in mol/L. Answer with that number alone.

Lookup: Given the molecule `O=C(c1ccccc1)c1cc(O)c(-c2cc(Cl)cc(Cl)c2)c(O)c1` , what is its reported pEC50?
Found: 5.62

----------
Test system: DU-145 prostate cancer cells
Experiment: Anti-cancer activity, WST-8 cell viability, DU-145
Assay type: cell-based
Details: Homo sapiens, DU-145, 18 h, read-out: DU-145 prostate EC50 (μM)
Protocol: A representative group of compounds (shown below) was tested for anti-cancer activity against human lung (DMS-135 and H69AR), prostate (DU-145), colorectal (HCT-15), and pancreatic (BxPC-3) cancer cell lines using the methodology described below, providing results shown in Table 3. Human cancer cells DU-145, DMS-135, H69AR, HCT-15, and BxPC-3 (American Type Culture Collection, ATCC) were cultured in supplemented media according to the recommendations of the supplier. […]
measured.endpoint: EC50 (µM)
Express your answer in µM, writing the number without its unit.

Lookup: For `COc1cc(C(=O)c2ccccc2)cc(O)c1-c1cc(Cl)cc(Cl)c1` , what is its reported EC50?
Found: 1.5

Lookup: If you can, please state the reported EC50 value of `CC(C)(c1ccccc1)c1cc(O)c(-c2cc(Cl)cc(Cl)c2)c(O)c1` .
Found: 1.4

Lookup: Dear colleague, I am looking for the recorded EC50 of the following molecule: `COc1cc(C(C)(C)c2ccccc2)cc(O)c1-c1cc(Cl)cc(Cl)c1`
Found: 1.4

----------
pEC50 reference
system: DU-145 prostate cancer cells; experiment: Anti-cancer activity, WST-8 cell viability, DU-145; format: cell-based; settings: Homo sapiens, DU-145; cell death at 18 hours, WST-8; n.a. = no activity; read-out: DU-145 prostate EC50
Remember the convention: pEC50 equals -log10 of concentration in molar.

Lookup: Reported pEC50 for DU-145 prostate cancer cells, given `O=C(c1ccccc1)c1cc(O)c(-c2cc(Cl)cc(Cl)c2)c(O)c1` ?
Found: 5.27

---
Lookup: Query for DU-145 prostate cancer cells: what pEC50 does the record show for COc1cc(C(O)c2ccccc2)cc(OC)c1-c1cc(Cl)cc(Cl)c1 (centres unmarked) ?
Found: 4.74

----------
test system: H69AR lung cancer cells; assay: Anti-cancer activity, WST-8 cell viability, H69AR; type: cell-based; settings: Homo sapiens, 18 h, read-out: H69AR lung EC50 (μM)
Each entry below carries its reported EC50.
Give the value in µM but do not write µM after it.

Please review the entries below; each comes with its answer.
Lookup: Dear colleague, I am looking for the recorded EC50 of the following molecule: COc1cc(C(C)(C)c2ccccc2)cc(O)c1-c1cc(Cl)cc(Cl)c1 [Compound 47]
Found: 12.2

Lookup: Item under review: CC(C)(c1ccccc1)c1cc(O)c(-c2cc(Cl)cc(Cl)c2)c(O)c1 [Compound 41] . Reported EC50?
Found: 1.8

From here, focus on the item given below.
Lookup: Query: EC50; subject: COc1cc(C(=O)c2ccccc2)cc(O)c1-c1cc(Cl)cc(Cl)c1 [Compound 29]
Found: 1.3
